Below, each entry is listed alongside its reported EC50.
System: T1, ITGA2 protein on the surface of human tumor cells (human, UniProt P17301 30-1181)
T1 construct: whole, on cells; Endogenously expressed; the cell line is named under assay or readout; also called Integrin alpha-2; ITGA2-positive HuCCT1 cells
T1 sequence (looked up): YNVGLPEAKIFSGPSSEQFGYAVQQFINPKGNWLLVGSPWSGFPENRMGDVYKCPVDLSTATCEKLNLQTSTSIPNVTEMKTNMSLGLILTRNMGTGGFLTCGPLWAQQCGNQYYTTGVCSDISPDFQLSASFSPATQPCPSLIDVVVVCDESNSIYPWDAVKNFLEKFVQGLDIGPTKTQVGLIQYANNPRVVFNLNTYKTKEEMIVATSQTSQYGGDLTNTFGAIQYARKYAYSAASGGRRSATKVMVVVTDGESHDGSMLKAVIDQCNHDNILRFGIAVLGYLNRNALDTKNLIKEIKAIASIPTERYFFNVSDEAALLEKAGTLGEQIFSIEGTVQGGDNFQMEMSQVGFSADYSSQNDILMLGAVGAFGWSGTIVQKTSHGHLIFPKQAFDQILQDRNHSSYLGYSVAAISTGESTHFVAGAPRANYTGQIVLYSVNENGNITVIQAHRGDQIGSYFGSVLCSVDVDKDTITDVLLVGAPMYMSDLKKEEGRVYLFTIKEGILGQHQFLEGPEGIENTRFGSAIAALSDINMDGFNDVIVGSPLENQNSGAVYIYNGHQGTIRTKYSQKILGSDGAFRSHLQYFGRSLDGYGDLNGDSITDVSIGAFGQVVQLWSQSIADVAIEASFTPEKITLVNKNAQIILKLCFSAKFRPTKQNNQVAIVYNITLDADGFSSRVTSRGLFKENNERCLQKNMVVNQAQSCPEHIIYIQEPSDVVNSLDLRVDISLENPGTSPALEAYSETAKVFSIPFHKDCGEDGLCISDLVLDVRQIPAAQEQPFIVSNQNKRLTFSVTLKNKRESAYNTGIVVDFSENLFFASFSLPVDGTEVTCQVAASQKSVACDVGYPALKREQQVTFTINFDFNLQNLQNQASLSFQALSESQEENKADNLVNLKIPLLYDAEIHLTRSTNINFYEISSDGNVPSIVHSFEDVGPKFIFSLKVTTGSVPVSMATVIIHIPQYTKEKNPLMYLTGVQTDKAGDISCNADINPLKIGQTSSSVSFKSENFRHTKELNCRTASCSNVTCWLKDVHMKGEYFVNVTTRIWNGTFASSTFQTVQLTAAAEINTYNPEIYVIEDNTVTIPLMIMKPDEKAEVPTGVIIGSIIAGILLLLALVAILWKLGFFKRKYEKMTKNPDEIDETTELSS
Procedure details: flow cytometry on HuCCT1 cells
Returns: string containing the number followed by the unit.

Examples with their reported EC50 follow.
Humanized antibody FS002-A208-H4L4 (antibody, human IgG1, kappa, V domains shown, Humanized IgG1 kappa) VH: QVQLVQSGAEVKKPGASVKVSCKASGYTFTDYEIHWVRQAPGQGLEWIGAIDPETGGTNYNQKFQGRVTLTADTSISTAYMELSRLRSDDTAVYYCSRSGYYVSNYESYAMDYWGQGTTVTVSS VL: DIQMTQSPSSLSASVGDRVTITCRASQNVGTNVAWYQQKPEKAPKSLIYSASYRFSGVPSRFSGSGSGTDFTLTISSLQPEDFATYYCQQYNIYPLSFGGGTKLELKR
0.6 nM
Vatelizumab (antibody, V domains shown) VH: QVQLQESGPGLVKPSETLSLTCTVSGFSLTNYGIHWIRQPPGKGLEWLGVIWARGFTNYNSALMSRLTISKDNSKNQVSLKLSSVTAADTAVYYCARANDGVYYAMDYWGQGTLVTVSS VL: DFVMTQSPAFLSVTPGEKVTITCSAQSSVNYIHWYQQKPDQAPKKLIYDTSKLASGVPSRFSGSGSGTDYTFTISSLEAEDAATYYCQQWTTNPLTFGQGTKVEIK
0.78 nM
Humanized antibody FS002-A226-H3L4 (antibody, human IgG1, kappa, V domains shown, Humanized IgG1 kappa) VH: QLQLVQSGAEVKKPGASVKVSCKASGYTFTDYEIHWVRQAPGQGLEWIGAIDPETGGTNYNQKFNDRVTLTADTSISTAYMELSRLRSDDTAVYYCSRSGYYVSNYESYAMDYWGQGTTVTVSS VL: DIQLTQSPSSLSASVGDRVTITCRASQDIKSYLSWYQQKPGKAPKLLIYDTSNLASGVPSRFSGSGSGTDFTLTISSLQPEDFATYYCQQWSSYPFTFGGGTKLEIKR
0.28 nM
Humanized antibody FS002-A103-H4L2 (antibody, human IgG1, kappa, V domains shown, Humanized IgG1 kappa) VH: QVQLVQSGAEVKKPGASVKVSCKASGYTFTDYEMHWVRQAPGQGLEWMGVIDPETGGTTYNQKFQGRVTLTADTSISTAYMELSRLRSDDTAVYYCSRSGYYVSSYESYAMDYWGQGTTVTVSS VL: EIVMTQSPKTMSMSPGERVTLSCKASENVGTYVSWYQQKPGQAPRLLIYGASTRESGVPDRFSGSGSGTDFTLTISSLQPEDFAVYYCQNDYSYPFTFGGGTKLEIKR
0.127 nM
Humanized antibody FS002-A153-H3L3 (antibody, human IgG1, kappa, V domains shown, Humanized IgG1 kappa) VH: QVQLVQSGAEVKKPGASVKLSCKASGYTFTDYEMHWVRQAPGQGLEWIGTIDPETGGTTYNQKFQGRVTLTADTSISTAYMELSRLRSDDTAVYYCSRSGYYVSSYESYAMDYWGQGTTVTVSS VL: DIVMTQSPDSLAVSLGERATINCKSSQSLLNSGNQKNYLTWYQQKPGQPPKLLIYGASTRESGVPDRFSGSGSGTDFTLTISSLQAEDVAVYYCQNDYSYPFTFGGGTKLEIKR
0.42 nM
Humanized antibody FS002-A226-H5L3 (antibody, human IgG1, kappa, V domains shown, Humanized IgG1 kappa) VH: QVQLVQSGAEVKKPGASVKVSCKASGYTFTDYEIHWVRQAPGQGLEWMGAIDPETGGTNYAQKFQGRVTMTADTSISTAYMELSRLRSDDTAVYYCSRSGYYVSNYESYAMDYWGQGTTVTVSS VL: DIQITQSPSSMSASVGDRVTITCKASQDIKSYLSWYQQKPGKAPKLLIYDTSNLASGVPSRFSGSGSGTDYTLTISSLQPEDFATYYCQQWSSYPFTFGGGTKLEIKR
0.58 nM
Humanized antibody FS002-A153-H5L5 (antibody, human IgG1, kappa, V domains shown, Humanized IgG1 kappa) VH: QVQLVQSGAEVKKPGASVKVSCKASGYTFTDYEMHWVRQAPGQGLEWMGTIDPETGGTTYAQKFQGRVTMTADTSISTAYMELSRLRSDDTAVYYCARSGYYVSSYESYAMDYWGQGTTVTVSS VL: EIVMTQSPPTLSLSPGERVTMSCRSSQSLLNSGNQKNYLTWYQQKPGQAPRLLIYGASTRESGVPARFSGSGSGTDFTLTISSLQPEDFAVYYCQNDYSYPFTFGGGTKLEIKR
0.48 nM

Task: Return the recorded EC50 value; entry: Humanized antibody FS002-A153-H5L1 (antibody, human IgG1, kappa, V domains shown, Humanized IgG1 kappa) VH: QVQLVQSGAEVKKPGASVKVSCKASGYTFTDYEMHWVRQAPGQGLEWMGTIDPETGGTTYAQKFQGRVTMTADTSISTAYMELSRLRSDDTAVYYCARSGYYVSSYESYAMDYWGQGTTVTVSS VL: DIVMTQSPDSLAVSLGERVTMSCKSSQSLLNSGNQKNYLTWYQQKPGQPPKLLIYGASTRESGVPDRFTGSGSGTDFTLTISSLQAEDVAVYYCQNDYSYPFTFGGGTKLEIKR
Output: 0.58 nM

Where these numbers come from: patent EP4722245A1
